# target_of_assay: UniProtKB P03372
# Sequence (P03372 whole entry): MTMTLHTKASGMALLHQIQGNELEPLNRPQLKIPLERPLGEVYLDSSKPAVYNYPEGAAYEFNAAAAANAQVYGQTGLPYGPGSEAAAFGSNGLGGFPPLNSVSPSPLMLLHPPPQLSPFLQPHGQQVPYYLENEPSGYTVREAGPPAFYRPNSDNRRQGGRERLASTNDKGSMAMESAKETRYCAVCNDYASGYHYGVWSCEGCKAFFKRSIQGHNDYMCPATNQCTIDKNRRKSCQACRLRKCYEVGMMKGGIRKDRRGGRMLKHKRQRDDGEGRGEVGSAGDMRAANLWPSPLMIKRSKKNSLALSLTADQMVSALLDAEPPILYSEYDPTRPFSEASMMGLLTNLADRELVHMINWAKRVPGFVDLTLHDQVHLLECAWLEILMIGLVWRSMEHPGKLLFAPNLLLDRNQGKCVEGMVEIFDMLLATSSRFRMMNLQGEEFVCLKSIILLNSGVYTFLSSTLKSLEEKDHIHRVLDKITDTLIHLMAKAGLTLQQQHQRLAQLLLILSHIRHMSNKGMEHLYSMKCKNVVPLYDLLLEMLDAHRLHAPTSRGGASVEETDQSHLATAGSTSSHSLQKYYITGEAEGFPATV
# assay_summary: Degradation of ERα in MCF-7 cells (immunoblotting, 4 h)
# Assay type: cell-based
# applied_conditions: 10nM compound
Returns: string. Value is condition met if measured Degradation rate (%) of ERα in MCF-7 cells is below 60%, and condition not met if it is greater than or equal to it.

compound="O=C1CCC(N2Cc3c(ccc4c3OCC43CCN(C4CCN(C5CCN(c6ccc([C@@H]7c8ccc(O)cc8CC[C@@H]7c7ccccc7)cc6)CC5)CC4)CC3)C2=O)C(=O)N1 (some centres unmarked)" label_value="condition not met"
compound="O=C1CCC(N2Cc3c(ccc4c3OCC43CCN(C4CCN(C(=O)C5CCC6(CC5)CN(c5ccc([C@@H]7c8ccc(O)cc8CC[C@@H]7c7ccccc7)cc5)C6)CC4)CC3)C2=O)C(=O)N1 (some centres unmarked)" label_value="condition not met"
compound="O=C1CCC(N2Cc3cc4c(cc3C2=O)OC2(CC4)CN(C(=O)C3CCC4(CC3)CN(c3ccc([C@@H]5c6ccc(O)cc6CC[C@@H]5c5ccccc5)cc3)C4)C2)C(=O)N1 (some centres unmarked)" label_value="condition met"
compound="O=C1CCC(N2Cc3c(ccc4c3OCC43CCN(CC(=O)NC4CC5(CCN(c6ccc([C@@H]7c8ccc(O)cc8CC[C@@H]7c7ccccc7)cc6)CC5)C4)CC3)C2=O)C(=O)N1 (some centres unmarked)" label_value="condition not met"
compound="O=C1CCC(N2Cc3c(ccc4c3OCC43CCN(C4CCN(C(=O)C5CCN(c6ccc([C@@H]7c8ccc(O)cc8CC[C@@H]7c7ccccc7)cc6)CC5)[C@@H](C(=O)N5CCC(F)(F)C5)C4)CC3)C2=O)C(=O)N1 (some centres unmarked)" label_value="condition not met"
compound="O=C1CCC(N2Cc3c(ccc4c3OCC43CCN(C(=O)CN4CCC5(CC4)CCN(c4ccc([C@@H]6c7ccc(O)cc7CC[C@@H]6c6ccccc6)cc4)CC5)CC3)C2=O)C(=O)N1 (some centres unmarked)" label_value="condition not met"
compound="O=C1CCC(N2Cc3c(ccc4c3OCC43CCN(C4CC5CCC(C4)N5C(=O)C4CCN(c5ccc([C@@H]6c7ccc(O)cc7CC[C@@H]6c6ccccc6)cc5)CC4)CC3)C2=O)C(=O)N1 (some centres unmarked)" label_value="condition not met"
compound="O=C1CCC(N2Cc3c(ccc4c3OCC43CCN(CC(=O)N4CC5(CCN(c6ccc([C@@H]7c8ccc(O)cc8CC[C@@H]7c7ccccc7)cc6)CC5)C4)CC3)C2=O)C(=O)N1 (some centres unmarked)" label_value="condition met"
compound="O=C1CCC(N2C(=O)c3cc4c(cc3C2=O)C2(CCN(C3CCC5(CC3)CN(c3ccc(C6c7ccc(O)cc7CCC6c6ccccc6)cc3)C5)CC2)CO4)C(=O)N1 (centres unmarked)" label_value="condition met"
compound="O=C1CCC(N2C(=O)c3ccc4c(c3C2=O)OCC42CCN(C3CCC4(CC3)CCN(c3ccc([C@@H]5c6ccc(O)cc6CC[C@@H]5c5ccccc5)cc3)CC4)CC2)C(=O)N1 (some centres unmarked)" label_value="condition met"

---

# target_of_assay: AR protein (Homo sapiens, UniProt P10275, T878A)
# Construct: host or cells: LNCaP FGC
# Sequence (P10275 whole entry T878A): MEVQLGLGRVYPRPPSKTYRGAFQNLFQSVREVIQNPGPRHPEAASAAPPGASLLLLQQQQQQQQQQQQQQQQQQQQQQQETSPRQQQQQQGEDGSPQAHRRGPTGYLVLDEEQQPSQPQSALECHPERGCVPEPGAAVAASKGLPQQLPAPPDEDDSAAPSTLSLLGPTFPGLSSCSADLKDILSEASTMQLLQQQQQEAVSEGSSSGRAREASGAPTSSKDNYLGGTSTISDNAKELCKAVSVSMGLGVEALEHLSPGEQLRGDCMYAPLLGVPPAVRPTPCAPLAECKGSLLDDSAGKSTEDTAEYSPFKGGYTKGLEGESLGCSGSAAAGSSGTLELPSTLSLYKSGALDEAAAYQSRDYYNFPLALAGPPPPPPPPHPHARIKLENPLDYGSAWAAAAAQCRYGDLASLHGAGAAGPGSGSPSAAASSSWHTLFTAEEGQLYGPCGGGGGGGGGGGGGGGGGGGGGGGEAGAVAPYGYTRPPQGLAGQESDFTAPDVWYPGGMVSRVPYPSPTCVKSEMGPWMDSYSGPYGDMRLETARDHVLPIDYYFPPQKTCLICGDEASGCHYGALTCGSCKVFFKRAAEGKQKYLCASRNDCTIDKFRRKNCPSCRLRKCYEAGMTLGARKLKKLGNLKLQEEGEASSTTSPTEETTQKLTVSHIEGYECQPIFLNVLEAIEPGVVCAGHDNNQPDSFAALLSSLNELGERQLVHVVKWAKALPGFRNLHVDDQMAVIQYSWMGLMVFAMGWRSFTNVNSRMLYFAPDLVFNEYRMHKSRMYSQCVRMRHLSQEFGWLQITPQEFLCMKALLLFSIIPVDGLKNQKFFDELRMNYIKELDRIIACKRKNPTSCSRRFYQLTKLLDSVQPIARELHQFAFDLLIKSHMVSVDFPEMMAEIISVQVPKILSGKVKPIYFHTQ
# assay_summary: Degradation of AR protein in LNCAP cells (Western blot, 8 h)
# Type: cell-based
# applied_conditions: LNCaP FGC cells, 100 nM
result_type: Degradation rates of the AR protein in LNCAP cells, 100 nM (%)

compound="COc1cc(O[C@H]2CC[C@H](NC(=O)c3ccc(N4CCC(CN5CCC6(CC5)COc5c6ccc6c5C(=O)N(C5CCC(=O)NC5=O)C6)(OC)CC4)nn3)CC2)ccc1C#N (relative stereo)" measured_value=71%
compound="COC1(CN2CCC3(CC2)COc2c3ccc3c2C(=O)N(C2CCC(=O)NC2=O)C3)CCN(c2ccc(C(=O)N[C@H]3CC[C@H](Oc4ccc(C#N)c(Cl)c4)CC3)nn2)CC1 (relative stereo)" measured_value=69%
compound="CC1(CN2CCC3(CC2)COc2c3ccc3c2C(=O)N(C2CCC(=O)NC2=O)C3)CCN(c2ccc(C(=O)N[C@H]3CC[C@H](Oc4ccc(C#N)c(Cl)c4)CC3)nn2)CC1 (relative stereo)" measured_value=68%
